- Test system: DND-41 (acute lymphoblastic leukemia)
- Assay notes: Antitumoral assay (MTS, 72 h), DND-41
- Reported conditions: Homo sapiens, DND41, 72 h, read-out: Cytotoxicity IC50, DND-41
Metric: IC50 (µM)
Give bare numbers, in µM.

{"columns": ["Molecule", "IC50, µM"],
 "data": [
  ["C/C(=C/CC[C@H](C)[C@@H]1CC[C@]2(C)C3=C(CC[C@@]12C)[C@@]1(C)CC(=O)C(C)(C)C1CC3)C(=O)O (stereo partly drawn) [Compound 11]", 49.3],
  ["C/C(=C/CC[C@H](C)[C@@H]1CC[C@]2(C)C3=C(CC[C@@]12C)[C@@]1(C)CCC(=O)C(C)(C)C1CC3)C(=O)O (stereo partly drawn) [IMNA, 24Z-isomasticadienonic acid]", 34.2],
  ["C/C(=C/CC[C@H](C)[C@@H]1CC[C@]2(C)C3=C(CC[C@@]12C)[C@@]1(C)CC(SC#N)C(=O)C(C)(C)C1CC3)C(=O)O (mixture of isomers) [Compound 6]", 18.5],
  ["C/C(=C/CC[C@H](C)[C@@H]1CC[C@]2(C)C3=C(CC[C@@]12C)[C@@]1(C)CC(Br)C(=O)C(C)(C)C1CC3)C(=O)O (mixture of isomers) [Compound 4]", 20.5],
  ["C/C(=C/CC[C@H](C)[C@@H]1CC[C@]2(C)C3=C(CC[C@@]12C)[C@@]1(C)Cc2sc(N)nc2C(C)(C)[C@@H]1CC3)C(=O)O [Compound 5]", 19]
]}

Continue with the molecule presented below.
Q. Return IC50 measured with DND-41 (acute lymphoblastic leukemia) given this molecule: COc1cc([C@@H]2c3cc4c(cc3[C@@H](O[C@@H]3O[C@@H]5CO[C@@H](C)O[C@H]5[C@H](O)[C@H]3O)[C@H]3COC(=O)[C@H]23)OCO4)cc(OC)c1O [Etoposide, reference compound]
A. 0.08

====

- Tested on: NCI-H460 (lung carcinoma)
- Assay notes: Antitumoral assay (MTS, 72 h), NCI-H460
- Reported conditions: Homo sapiens, NCI-H460, 72 h, read-out: Cytotoxicity IC50, NCl-H460
pIC50: −log10 of the molar value.
I'd appreciate it if you could supply pIC50 values for the items below.

Here is how some compounds turned out for pIC50.
{"columns": ["Compound", "pIC50"],
 "data": [
  ["C/C(=C/CC[C@H](C)[C@@H]1CC[C@]2(C)C3=C(CC[C@@]12C)[C@@]1(C)Cc2cnoc2C(C)(C)[C@@H]1CC3)C(=O)O", "< 4.30"],
  ["C/C(=C/CC[C@H](C)[C@@H]1CC[C@]2(C)C3=C(CC[C@@]12C)[C@@]1(C)CCC(=O)C(C)(C)C1CC3)C(=O)O (stereo partly drawn) [IMNA, 24Z-isomasticadienonic acid]", "< 4.30"]
]}

Continue with the compound presented below.
Q. I have this compound here, "C/C(=C/CC[C@H](C)[C@@H]1CC[C@]2(C)C3=C(CC[C@@]12C)[C@@]1(C)Cc2sc(N4CCOCC4)nc2C(C)(C)[C@@H]1CC3)C(=O)O" , and I need its recorded pIC50.
A. < 4.30

====

- Tested on: DND-41 (acute lymphoblastic leukemia)
- Assay notes: Antitumoral assay (MTS, 72 h), DND-41
- Reported conditions: Homo sapiens, DND41, 72 h, read-out: Cytotoxicity IC50, DND-41
pIC50: −log10 of the molar value.
I'd appreciate it if you could supply pIC50 values for the items below.

Each of the following entries comes with a recorded value; kindly state pIC50 for each.
1. C/C(=C/CC[C@H](C)[C@@H]1CC[C@]2(C)C3=C(CC[C@@]12C)[C@]1(C)C(CC3)C(C)(C)C(=O)O[C@@H]1O)C(=O)O (stereo partly drawn)
2. C/C(=C/CC[C@H](C)[C@@H]1CC[C@]2(C)C3=C(CC[C@@]12C)[C@@]1(C)Cc2cnoc2C(C)(C)[C@@H]1CC3)C(=O)O
3. C/C(=C/CC[C@H](C)[C@@H]1CC[C@]2(C)C3=C(CC[C@@]12C)[C@@]1(C)Cc2sc(N4CCOCC4)nc2C(C)(C)[C@@H]1CC3)C(=O)O

A.
["< 4.30", "< 4.30", "< 4.30"]

Data origin, for the record: paper PMC12692795
